Biological target: T1, integrin αVβ3 (UniProt P06756 31-992; P05106 27-718)
T1 construct: Coated on the ELISA plate
T1 sequence (P06756 31-992, chain 1 of 2): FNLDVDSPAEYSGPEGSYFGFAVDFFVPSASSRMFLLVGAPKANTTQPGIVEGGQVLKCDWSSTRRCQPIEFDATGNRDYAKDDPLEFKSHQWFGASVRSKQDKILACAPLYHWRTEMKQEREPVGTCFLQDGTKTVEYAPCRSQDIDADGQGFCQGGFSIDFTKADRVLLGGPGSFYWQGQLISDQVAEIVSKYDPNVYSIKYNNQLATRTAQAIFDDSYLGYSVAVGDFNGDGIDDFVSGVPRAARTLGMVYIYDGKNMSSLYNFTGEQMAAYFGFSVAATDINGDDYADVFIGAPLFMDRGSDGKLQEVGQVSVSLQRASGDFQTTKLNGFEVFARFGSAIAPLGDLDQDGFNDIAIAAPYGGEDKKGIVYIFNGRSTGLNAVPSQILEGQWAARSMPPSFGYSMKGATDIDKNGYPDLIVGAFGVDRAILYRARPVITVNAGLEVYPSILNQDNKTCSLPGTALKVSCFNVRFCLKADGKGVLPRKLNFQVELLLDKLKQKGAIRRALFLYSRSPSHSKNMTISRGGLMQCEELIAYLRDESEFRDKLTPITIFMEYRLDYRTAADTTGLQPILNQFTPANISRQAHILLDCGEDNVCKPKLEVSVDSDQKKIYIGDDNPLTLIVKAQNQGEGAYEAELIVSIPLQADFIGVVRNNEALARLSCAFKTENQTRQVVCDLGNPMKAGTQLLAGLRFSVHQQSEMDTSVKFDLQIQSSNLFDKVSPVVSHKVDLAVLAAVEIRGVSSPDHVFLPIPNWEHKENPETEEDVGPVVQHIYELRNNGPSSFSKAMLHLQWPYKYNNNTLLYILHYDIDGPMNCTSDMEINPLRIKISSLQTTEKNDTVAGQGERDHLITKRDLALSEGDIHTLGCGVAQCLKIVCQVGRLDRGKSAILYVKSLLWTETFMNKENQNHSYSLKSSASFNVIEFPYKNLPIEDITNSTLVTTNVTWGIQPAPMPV
T1 sequence (P05106 27-718, chain 2 of 2): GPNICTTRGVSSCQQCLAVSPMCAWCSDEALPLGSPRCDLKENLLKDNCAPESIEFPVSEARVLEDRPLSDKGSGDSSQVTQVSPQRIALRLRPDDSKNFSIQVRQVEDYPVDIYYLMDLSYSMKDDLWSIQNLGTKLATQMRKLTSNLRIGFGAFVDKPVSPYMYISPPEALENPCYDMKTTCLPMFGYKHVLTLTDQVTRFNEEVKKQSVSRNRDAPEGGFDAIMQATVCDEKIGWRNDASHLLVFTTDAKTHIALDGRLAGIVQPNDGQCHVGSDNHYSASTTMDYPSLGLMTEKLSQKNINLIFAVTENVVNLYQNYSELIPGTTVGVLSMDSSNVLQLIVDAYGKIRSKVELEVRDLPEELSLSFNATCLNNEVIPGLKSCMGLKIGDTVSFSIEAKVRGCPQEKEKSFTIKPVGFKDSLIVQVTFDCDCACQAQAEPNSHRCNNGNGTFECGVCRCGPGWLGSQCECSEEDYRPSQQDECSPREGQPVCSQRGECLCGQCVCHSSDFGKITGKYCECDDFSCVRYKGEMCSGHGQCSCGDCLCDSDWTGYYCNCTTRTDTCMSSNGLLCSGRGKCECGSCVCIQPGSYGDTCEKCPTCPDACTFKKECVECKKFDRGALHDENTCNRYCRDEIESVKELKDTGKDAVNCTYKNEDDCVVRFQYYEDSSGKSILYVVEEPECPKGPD
Experiment: ELISA, coated integrin, anti-MICA-HRP
Decide using αvβ3 signal: a value greater than or equal to 0.5 OD is met, a smaller one is not met.

INSERT INTO results (binder, group) VALUES
  ('soluble MICA generated from pKK40 (loop 1 insert 5.1) (designed binder, From pKK34 (His6, Glu125); secreted by 293T cells; also called 1-5.1) HHHHHHEPHSLRYNLTVLSWDGSVQSGFLTEVHLDGQPFLRCDRQKCRAKPQGQWAEDVLGNKTWDRETRDLTGNGKDLRMTLAHIKDQKEGLHSLQEIRVCEIHEDNSTRSSQHFYYDGELFLSQNLETEEWTMPQSSRAQTLAMNVRNFLKEDAMKTKTHYHAMHADCLQELRRYLKSGVVLRRTVPPMVNVTVTRGDTFTQSVTCRASGFYPWNITLSWRQDGVSLSHDTQQWGDVLPDGNGTYQTWVATRICQGEEQRFTCYMEHSGNHSTHPVPSGK', 'not met'),
  ('soluble MICA generated from pKK56 (tight loop 1 insert T-5.3) (designed binder, From pSW324 (from pKK34: His6, Glu125); secreted by 293T cells; also called 1-T-5.3) HHHHHHEPHSLRYNLTVLSWDGSVQSGFLTEVHLDGQPFLRCDRQKCRAKPQGQWAEDVLGNKTWDRETRDLTGNGKDLRMTLAHIKDQKEGLHSLQEIRVCEIHEDNSTRSSQHFYYDGELFLSQNLETEEWTMPQSSRAQTLAMNVRNFLKEDAMKTKTHYHAMHADCLQELRRYLKSGVVLRRTVPPMVNHLARGDDLTYCRASGFYPWNITLSWRQDGVSLSHDTQQWGDVLPDGNGTYQTWVATRICQGEEQRFTCYMEHSGNHSTHPVPSGK', 'not met'),
  ('soluble MICA generated from pKK53 (tight loop 1 insert T-3.5) (designed binder, From pSW324 (from pKK34: His6, Glu125); secreted by 293T cells; also called 1-T-3.5) HHHHHHEPHSLRYNLTVLSWDGSVQSGFLTEVHLDGQPFLRCDRQKCRAKPQGQWAEDVLGNKTWDRETRDLTGNGKDLRMTLAHIKDQKEGLHSLQEIRVCEIHEDNSTRSSQHFYYDGELFLSQNLETEEWTMPQSSRAQTLAMNVRNFLKEDAMKTKTHYHAMHADCLQELRRYLKSGVVLRRTVPPMVNGSRGDSLIMHCRASGFYPWNITLSWRQDGVSLSHDTQQWGDVLPDGNGTYQTWVATRICQGEEQRFTCYMEHSGNHSTHPVPSGK', 'met'),
  ('soluble MICA generated from pKK39 (loop 1 insert 3.4) (designed binder, From pKK34 (His6, Glu125); secreted by 293T cells; also called 1-3.4) HHHHHHEPHSLRYNLTVLSWDGSVQSGFLTEVHLDGQPFLRCDRQKCRAKPQGQWAEDVLGNKTWDRETRDLTGNGKDLRMTLAHIKDQKEGLHSLQEIRVCEIHEDNSTRSSQHFYYDGELFLSQNLETEEWTMPQSSRAQTLAMNVRNFLKEDAMKTKTHYHAMHADCLQELRRYLKSGVVLRRTVPPMVNVTRSARGDSDHRVTCRASGFYPWNITLSWRQDGVSLSHDTQQWGDVLPDGNGTYQTWVATRICQGEEQRFTCYMEHSGNHSTHPVPSGK', 'not met'),
  ('soluble MICA generated from pKK36 (loop 1 insert 3.1) (designed binder, From pKK34 (His6, Glu125); secreted by 293T cells; also called 1-3.1) HHHHHHEPHSLRYNLTVLSWDGSVQSGFLTEVHLDGQPFLRCDRQKCRAKPQGQWAEDVLGNKTWDRETRDLTGNGKDLRMTLAHIKDQKEGLHSLQEIRVCEIHEDNSTRSSQHFYYDGELFLSQNLETEEWTMPQSSRAQTLAMNVRNFLKEDAMKTKTHYHAMHADCLQELRRYLKSGVVLRRTVPPMVNVTSRGDHPRTQVTCRASGFYPWNITLSWRQDGVSLSHDTQQWGDVLPDGNGTYQTWVATRICQGEEQRFTCYMEHSGNHSTHPVPSGK', 'met'),
  ('soluble MICA generated from pKK46 (loop 1 insert extended 5.1sp) (designed binder, From pKK34 (His6, Glu125); secreted by 293T cells; also called 1-5.1sp) HHHHHHEPHSLRYNLTVLSWDGSVQSGFLTEVHLDGQPFLRCDRQKCRAKPQGQWAEDVLGNKTWDRETRDLTGNGKDLRMTLAHIKDQKEGLHSLQEIRVCEIHEDNSTRSSQHFYYDGELFLSQNLETEEWTMPQSSRAQTLAMNVRNFLKEDAMKTKTHYHAMHADCLQELRRYLKSGVVLRRTVPPMVNVTSGGSGGGSVTRGDTFTQSSGGSGGGVTCRASGFYPWNITLSWRQDGVSLSHDTQQWGDVLPDGNGTYQTWVATRICQGEEQRFTCYMEHSGNHSTHPVPSGK', 'not met'),
  ('soluble MICA generated from pKK47 (loop 1 insert extended 5.3sp) (designed binder, From pKK34 (His6, Glu125); secreted by 293T cells; also called 1-5.3sp) HHHHHHEPHSLRYNLTVLSWDGSVQSGFLTEVHLDGQPFLRCDRQKCRAKPQGQWAEDVLGNKTWDRETRDLTGNGKDLRMTLAHIKDQKEGLHSLQEIRVCEIHEDNSTRSSQHFYYDGELFLSQNLETEEWTMPQSSRAQTLAMNVRNFLKEDAMKTKTHYHAMHADCLQELRRYLKSGVVLRRTVPPMVNVTSGGSGGGSHLARGDDLTYSGGSGGGVTCRASGFYPWNITLSWRQDGVSLSHDTQQWGDVLPDGNGTYQTWVATRICQGEEQRFTCYMEHSGNHSTHPVPSGK', 'not met'),
  ('soluble MICA generated from pKK55 (tight loop 1 insert T-5.1) (designed binder, From pSW324 (from pKK34: His6, Glu125); secreted by 293T cells; also called 1-T-5.1) HHHHHHEPHSLRYNLTVLSWDGSVQSGFLTEVHLDGQPFLRCDRQKCRAKPQGQWAEDVLGNKTWDRETRDLTGNGKDLRMTLAHIKDQKEGLHSLQEIRVCEIHEDNSTRSSQHFYYDGELFLSQNLETEEWTMPQSSRAQTLAMNVRNFLKEDAMKTKTHYHAMHADCLQELRRYLKSGVVLRRTVPPMVNVTRGDTFTQSCRASGFYPWNITLSWRQDGVSLSHDTQQWGDVLPDGNGTYQTWVATRICQGEEQRFTCYMEHSGNHSTHPVPSGK', 'not met'),
  ('soluble MICA generated from pKK48 (loop 3 insert extended 3.2sp) (designed binder, From pSW276 (no N-terminal His tag, Lys125); secreted by 293T cells; also called 3-3.2sp) EPHSLRYNLTVLSWDGSVQSGFLTEVHLDGQPFLRCDRQKCRAKPQGQWAEDVLGNKTWDRETRDLTGNGKDLRMTLAHIKDQKEGLHSLQEIRVCEIHEDNSTRSSQHFYYDGELFLSQNLETKEWTMPQSSRAQTLAMNVRNFLKEDAMKTKTHYHAMHADCLQELRRYLKSGVVLRRTVPPMVNVTRSEASEGNITVTCRASGFYPWNITLSWRQDGVSLSHDTQQWGDVLPDGNGTYQTWVATRISGGSGGGSTSRGDHPRTQSGGSGGGCYMEHSGNHSTHPVPSGK', 'not met');
